- Experimental Protocol: chemical genetic growth profiling, strain panel (AID 1159580);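 also: tested at 20 µM; growth read once vehicle control cultures reached saturation at 30 °C; 1 = growth at the plate median or of vehicle wells; lower values mean less growth of the strain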
- Experimental Context: S. cerevisiae deletion strains, growth OD, locus YNL209W, strain ssb2
In all, about 5,500 compounds went through this assay and about 2,000 (36%) were called active. Another 18% or so got no clear call; they are omitted. Rule as the data show it: active = normalized growth mostly below about 0.91 (no sharp cut-off); inconclusive = no clear call, values can overlap the other calls; inactive = mostly above about 0.92. The list shows a part of the results.
Please reply with one of these outcomes: active, inactive

Prompt: Identify the outcome logged in this assay for the molecule shown: CCC(C)C(=O)O[C@@H]1C[C@@]2(C)[C@H](c3ccoc3)OC(=O)CC23OC2(C)OC34[C@H](OC(=O)C(C)C)[C@@]3(O)[C@@H](OC(=O)C5(C)OC5C)[C@@]5(C)C[C@]3(O)[C@@](C)([C@H]5CC(=O)OC)C14O2 (some centres not stated)
Completion: inactive

Prompt: Each molecule tested received a call. Report the one for COC(=O)C[C@H]1C2(C)CC34OC5(C)O[C@@]6([C@H](OC)C(OC(=O)C(C)C)[C@]7(C)C(/C(=C(/OC)C(C)C)C(=O)O[C@H]7c7ccoc7)[C@@]6(O5)[C@H](OC)[C@@]3(OC)C2OC(C)=O)[C@]14C (some centres not stated) .
Completion: inactive

Prompt: Hi, sorry to bother you, what did the test record for "CCCCCCCCCCCCCc1ccco1" ?
Completion: inactive

Prompt: For "C[n+]1c2cc(N)ccc2cc2ccc(N)cc21" , what call appears in the results of this test?
Completion: active

Prompt: What classification did "C#CCCCCCCCCCCCc1ccco1" end up with in this test?
Completion: inactive

Prompt: Just curious, what result did "CNC(=O)O/N=C(\C)SC" get here?
Completion: inactive

Prompt: How was CCC(C)C(=O)O[C@@H]1C[C@@]2(C)[C@H](c3ccoc3)OC(=O)CC23OC2(C)O[C@]14[C@]1(C)[C@@H](CC(=O)OC)C5(C)CC1(O)[C@](O)(C5OC(=O)C1(C)OC1C)[C@@H](OC(C)=O)[C@]34O2 (some centres not stated) classified in this test?
Completion: inactive

----------
- Experimental Protocol: chemical genetic growth profiling, strain panel (AID 1159580);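 also: tested at 20 µM; growth read once vehicle control cultures reached saturation at 30 °C; 1 = growth at the plate median or of vehicle wells; lower values mean less growth of the strain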
- Experimental Context: S. cerevisiae deletion strains, growth OD, locus YPL256C, strain CLN2, hits give low values
The campaign covered roughly 5,500 compounds. About 2,000 (36%) were called active. About 18% were inconclusive and are not listed. The list shows a part of the results.
Experimental Endpoint: normalized growth

Prompt: Query normalized growth for "CCN(CC)Cc1ccc(Nc2ccnc3cc(Cl)ccc23)cc1O"
Completion: 1.01 (inactive)

Prompt: Return normalized growth for the following compound: c1ccc2c(c1)CCCC2C1=NCCN1 (centres undefined)
Completion: 0.959 (inactive)

Prompt: Using the record for CC[C@@H](C(=O)C(C)[C@@H](O)[C@H](C)CCc1ccc(C)c(O)c1C(=O)O)C1OC(CC)(C2CC[C@](O)(CC)[C@H](C)O2)C[C@@H]1C (some centres undefined) , state its measured normalized growth.
Completion: 0.982 (inactive)

Prompt: Answer with the recorded normalized growth for the compound listed here: "CCCN(CCC)C(=S)NC(=O)c1cccc([N+](=O)[O-])c1"
Completion: 0.941 (inactive)

Prompt: Assign normalized growth to the following record: C/C=C(\C)C(=O)O[C@H]1C[C@@H](OC(C)=O)[C@@]2(C(=O)OC)CO[C@@H]3C2[C@]12CO[C@](O)(C(=O)OC)[C@H]2[C@](C)(C12O[C@@]1(C)[C@H]1C[C@@H]2OC2OC=C[C@@]21O)[C@@H]3O (some centres undefined)
Completion: 0.971 (inactive)

Prompt: // Input: CC(=O)S[C@@H]1CC2=CC(=O)CC[C@]2(C)[C@H]2CC[C@@]3(C)[C@@H](CC[C@@]34CCC(=O)O4)C12 (some centres undefined) . Output its normalized growth only.
Completion: 1.09 (inactive)

Prompt: For "Cc1ccc(Nc2ccnc3cc(Cl)ccc23)cc1F" , write its normalized growth.
Completion: 0.92 (inactive)

Prompt: Identify normalized growth associated with the compound C[C@]12CCC(=O)C=C1C=CC1C2CC[C@@]2(C)C1CC[C@@]21CCC(=O)O1 (some centres undefined)
Completion: 0.946 (inactive)

Prompt: # return recorded normalized growth for entry COc1ccc(C(CN(C)C)C2(O)CCCCC2)cc1 (centres undefined)
Completion: 0.992 (inactive)
